Data credit: patent US20100227853A1

# experimental.system: PDE4A1 (Mus musculus)
# Construct: targets used in the assays are full-length proteins (as opposed to simply the catalytic domain); expressed in transfected cells; host or cells: Schizosaccharomyces pombe, PDE gene integrated in place of cgs2
# Sequence (O89084 1-610 isoform O89084-2): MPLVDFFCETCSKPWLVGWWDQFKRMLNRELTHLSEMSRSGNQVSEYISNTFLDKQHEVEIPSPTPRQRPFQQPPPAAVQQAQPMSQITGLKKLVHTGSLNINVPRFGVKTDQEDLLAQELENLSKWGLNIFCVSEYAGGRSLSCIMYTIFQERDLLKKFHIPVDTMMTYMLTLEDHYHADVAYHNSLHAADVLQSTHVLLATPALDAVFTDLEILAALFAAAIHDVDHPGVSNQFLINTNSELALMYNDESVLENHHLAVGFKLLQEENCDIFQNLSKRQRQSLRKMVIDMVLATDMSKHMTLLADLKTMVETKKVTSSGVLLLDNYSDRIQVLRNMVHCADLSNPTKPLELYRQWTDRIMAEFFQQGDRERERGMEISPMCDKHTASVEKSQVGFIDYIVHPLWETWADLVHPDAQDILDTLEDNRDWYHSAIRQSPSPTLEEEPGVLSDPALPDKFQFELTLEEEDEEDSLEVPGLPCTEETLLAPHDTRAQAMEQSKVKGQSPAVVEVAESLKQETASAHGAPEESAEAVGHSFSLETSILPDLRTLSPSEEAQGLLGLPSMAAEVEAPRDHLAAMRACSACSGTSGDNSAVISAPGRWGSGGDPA
# method.description: 5FOA growth assay (high throughput screen, ED50) in fission yeast strain expressing PDE4A1
# Assay type: cell-based
# assay.context: high throughput 5FOA growth screen; greater than 8.53 = statistically-significant inhibitor
# Description: High throughput drug screens were carried out at the Broad Institute's Chemical Biology Program screening facility (Broad Institute, Cambridge, Mass.). Depending upon the strain, cultures were pregrown to exponential phase in EMM complete medium containing from 0.5 to 2.5 mM cAMP to repress fbp1-ura4 transcription. […] Starting cell concentrations ranged from 0.5×10^5 to 4×10^5 cells/ml depending on the screening strain. […] Optical densities (OD600) of cultures were measured using a microplate reader. […]
measured.endpoint: Composite Z score, PDE4A1
Answer with the value's number alone.

Looking for the measured Composite Z score, PDE4A1 of Cc1nc(N2CCCCC2)c2c(C)c(C(=O)Nc3cccc(C(F)(F)F)c3)sc2n1 , can you help?
11.225

Same again, this time with CCOC(=O)c1sc2nc(CC(=O)OC)nc(NCCN3CCOCC3)c2c1C
0.3744

Same again, this time with Cc1sc2ncnc(NCC(=O)O)c2c1C
0.3168

Same again, this time with Cc1nc(N2CCOCC2)c2c(C)c(C(=O)Nc3cccc(Cl)c3C)sc2n1
3.4896

Same again, this time with COc1cc(NC(=O)c2sc3nc(C)nc(N4CCCCC4C)c3c2C)cc(OC)c1OC (stereo not drawn)
17.363

Same again, this time with CC1CCc2c(sc3nc(SCC(N)=O)nc(NCc4ccccc4)c23)C1 (stereo not drawn) [Compound 1439G17]
6.7542

Same again, this time with Cc1sc2ncnc(N(C)C)c2c1C
1.0991

Same again, this time with COC(=O)c1ccccc1NC(=O)c1sc2ncnc(N3CCN(c4ccccn4)CC3)c2c1C
0.5937

Same again, this time with COc1cc(NC(=O)c2sc3ncnc(N4CCCCC4C)c3c2C)cc(OC)c1OC (stereo not drawn)
27.41

Same again, this time with O=C(Nc1ncnc2sc3c(c12)CCCCC3)c1ccc(F)cc1
34.225

Same again, this time with COC(=O)Cc1nc(N2CCC(C)CC2)c2c3c(sc2n1)CCCC3
10.795

Same again, this time with CC1CCc2c(sc3ncnc(NCCN4CCOCC4)c23)C1 (stereo not drawn)
0.4867

Same again, this time with CCCCN(CC)C(=O)c1sc2ncnc(N3CCN(c4ccc(OC)cc4)CC3)c2c1C
0.0978

Same again, this time with O=C(O)C(Cc1ccccc1)Nc1ncnc2sc3c(c12)CCC3 (stereo not drawn)
−0.467

Same again, this time with OCCN(CCO)c1ncnc2sc3c(c12)CCCC3
2.2076

Same again, this time with CC(C)CC(Nc1ncnc2sc3c(c12)CCC3)C(=O)O (stereo not drawn)
0.407

Same again, this time with Cc1c(C(=O)Nc2ccc3c(c2)OCCO3)sc2ncnc(N3CCc4ccccc4C3)c12
32.338

Same again, this time with COCCCNC(=O)c1sc2ncnc(N3CCc4ccccc4C3)c2c1C
5.0576

Same again, this time with CC(C)(C)C(=O)Nc1ncnc2sc3c(c12)CCCC3
1.5734

Same again, this time with Cc1sc2ncnc(Nc3ccccc3)c2c1C
24.925

Same again, this time with Cc1c(C(=O)NCC2CCCO2)sc2ncnc(N3CCN(c4ccccc4)CC3)c12 (stereo not drawn)
1.0613

Same again, this time with Cc1sc2ncnc(N3CCN(c4cccc(C(F)(F)F)c4)CC3)c2c1C
11.67

Same again, this time with COc1ccccc1CNC(=O)c1sc2ncnc(N3CCN(c4ccccc4F)CC3)c2c1C
1.9156

Same again, this time with Cc1sc2ncnc(N3CCN(CCO)CC3)c2c1C
0.1942

Same again, this time with Cc1sc2ncnc(NCCc3ccc4c(c3)OCCO4)c2c1C
10.127

Same again, this time with Cc1c(C(=O)N2CCC3(CC2)OCCO3)sc2ncnc(N(C)c3ccccc3)c12
3.1682

Same again, this time with CCOC(=O)c1sc2nc(C)nc(N3CCC(C)CC3)c2c1C
−0.396

Same again, this time with CCN1CCN(c2nc(C)nc3sc4c(c23)CCC4)CC1
1.6242

Same again, this time with COc1ccc(CCNc2ncnc3sc(C)c(C)c23)cc1OC
0.9043

Same again, this time with Cc1nc(N2CCN(C)CC2)c2c(C)c(C(=O)N3CCN(c4cccc(Cl)c4)CC3)sc2n1
−0.078

Same again, this time with Cc1sc2ncnc(NCc3ccc4c(c3)OCO4)c2c1C
1.5745

Same again, this time with CCC(CO)Nc1nc(C)nc2sc3c(c12)CCCC3 (stereo not drawn)
0.4682

Same again, this time with CCC(C)NC(=O)c1sc2nc(C)nc(N(C)c3ccc(C(C)C)cc3)c2c1C (stereo not drawn)
11.659

Same again, this time with CNc1nc(=S)[nH]c2sc3c(c12)CCCC3
−1.088

Same again, this time with COc1ccc(CCNc2ncnc3sc4c(c23)CCCC4)cc1
32.257

Same again, this time with Cc1c(C(=O)NCCC2CCCCC2)sc2ncnc(N3CCCCC3C)c12 (stereo not drawn)
14.925
